All figures here come from patent US12195490B2.

Exercise: for every item that follows, state its recorded log2fc.
# System: ACHN cell line
# Assay protocol: drug screen of the SelleckChem kinase inhibitor library with and without 5 uM SU-329, Cell-Titer Glo after 5 days
# Type: cell-based
# Condition label: kinase inhibitor at 200 nM with and without 5 uM SU329; ACHN cell line; 5 days; Cell-Titer Glo

(Q) Indicate its recorded log2fc; the compound in question is `CCOc1cc(C(=O)N2CCC(N3CCN(C)CC3)CC2)ccc1Nc1ncc2c(n1)N(C1CCCC1)c1ccccc1C(=O)N2C`
(A) 0.1031

(Q) Indicate its recorded log2fc; the compound in question is COc1cc2nccc(Oc3ccc(NC(=O)NC4CC4)c(Cl)c3)c2cc1C(N)=O [Lenvatinib (E7080)]
(A) −0.314

(Q) Indicate its recorded log2fc; the compound in question is O=C(Nc1ccc(-c2ccnc(Nc3ccc(N4CCOCC4)cc3)n2)cc1)C1CCCN1 (stereo not shown)
(A) −0.1669

(Q) Indicate its recorded log2fc; the compound in question is CN1CCCN(C(=O)c2cccc(-c3ccc(/C=C4/C(=O)Nc5ccc(Cl)cc54)o3)c2)CC1.Cl [CX-6258 HCl]
(A) −0.355

(Q) Indicate its recorded log2fc; the compound in question is CN(c1ncccc1CNc1nc(Nc2ccc3c(c2)CC(=O)N3)ncc1C(F)(F)F)S(C)(=O)=O [PF-562271]
(A) 0.8258

(Q) Indicate its recorded log2fc; the compound in question is `O=C(NCc1cccc(O)c1)Nc1nc(-c2ccncc2)cs1`
(A) −0.8453

(Q) Indicate its recorded log2fc; the compound in question is `CC(C)(C)c1ccc(S(=O)(=O)/C=C/C#N)cc1`
(A) 0.004153

(Q) Indicate its recorded log2fc; the compound in question is O=C(NOCC1CC1)c1ccc(F)c(F)c1Nc1ccc(I)cc1Cl [PD184352 (CI-1040), PD184352, reference compound]
(A) 0.3257

(Q) Indicate its recorded log2fc; the compound in question is `COc1ccccc1-c1cc(Nc2cccc(CS(N)(=O)=O)c2)ncn1`
(A) −0.05049

(Q) Indicate its recorded log2fc; the compound in question is `Nc1nc(N)c2nc(-c3cccc(O)c3)c(-c3cccc(O)c3)nc2n1`
(A) 0.2334

(Q) Indicate its recorded log2fc; the compound in question is `O=c1c(-c2ccc(O)cc2)coc2cc(O)cc(O)c12`
(A) 0.05262

(Q) Indicate its recorded log2fc; the compound in question is `OCCn1cc(-c2ccc3c(c2)CC/C3=N\O)c(-c2ccncc2)n1`
(A) 0.3592

(Q) Indicate its recorded log2fc; the compound in question is `Cc1nc(N)sc1-c1ccnc(Nc2ccc(N3CCOCC3)cc2)n1`
(A) −0.814

(Q) Indicate its recorded log2fc; the compound in question is `Cc1[nH]c(/C=C2\C(=O)Nc3ccc(S(=O)(=O)N(C)c4cccc(Cl)c4)cc32)c(C)c1C(=O)N1CCN(C)CC1`
(A) 0.1013

(Q) Indicate its recorded log2fc; the compound in question is `C[C@]1(O)C[C@@H](c2nc(-c3ccc4ccc(-c5ccccc5)nc4c3)c3c(N)nccn32)C1`
(A) 0.08978

(Q) Indicate its recorded log2fc; the compound in question is Cn1cnc2c(F)c(Nc3ccc(Br)cc3Cl)c(C(=O)NOCCO)cc21 [Selumetinib (AZD6244), selumetinib, reference compound]
(A) 0.357

(Q) Indicate its recorded log2fc; the compound in question is `Cc1cn(-c2cc(NC(=O)c3ccc(C)c(Nc4nccc(-c5cccnc5)n4)c3)cc(C(F)(F)F)c2)cn1`
(A) 0.331

(Q) Indicate its recorded log2fc; the compound in question is `COc1cc(C(=O)NC2CCN(C)CC2)ccc1Nc1ncc2c(n1)N(C1CCCC1)CC(F)(F)C(=O)N2C`
(A) 0.4269

(Q) Indicate its recorded log2fc; the compound in question is `CCCS(=O)(=O)Nc1ccc(F)c(C(=O)c2c[nH]c3ncc(Cl)cc23)c1F`
(A) −0.05066

====

# System: ACHN cell line
# Assay protocol: drug screen of the SelleckChem kinase inhibitor library with and without 5 uM SU-329, Cell-Titer Glo after 5 days
# Assay type: cell-based
# Condition label: kinase inhibitor at 200 nM with and without 5 uM SU329; ACHN cell line; 5 days; Cell-Titer Glo
Quick rule for you: log2fc at -0.1 or higher means y, lower means n.

(Q) Does N#C/C(=C(/N)Sc1ccc(N)cc1)c1ccccc1C(F)(F)F [SL-327] have a reported log2fc of at least -0.1?
(A) n

(Q) Does CN(C)C/C=C/C(=O)Nc1cc2c(Nc3ccc(F)c(Cl)c3)ncnc2cc1O[C@H]1CCOC1 [Afatinib (BIBW2992), afatinib, reference compound] have a reported log2fc of at least -0.1?
(A) y

(Q) Does N[C@@H]1CCCN(c2c(/C=C3\SC(=O)NC3=O)cccc2-c2ccccc2)C1 [AZD1208] have a reported log2fc of at least -0.1?
(A) n

(Q) Does O=c1cc(N2CCOCC2)oc2c(-c3ccccc3)cccc12 [LY294002] have a reported log2fc of at least -0.1?
(A) y

(Q) Does C[C@@H]1COC(Nc2ccc3ncnc(Nc4ccc(OCc5nccs5)c(Cl)c4)c3c2)=N1 [Varlitinib] have a reported log2fc of at least -0.1?
(A) y

====

# Study target: LKB1 (Homo sapiens, UniProt Q15831+Q7RTN6)
# Assay protocol: in vitro LKB1 functional activity
# Format: biochemical
# Condition label: APA analogs
Reported property: LKB1 % Act. Increase

The examples below pair each entry with its known result.
Compound	Result
CCOP(=O)(C[S@SP3](=O)(=O)c1ccc(NC(=O)c2nc(-c3ccc(C)cc3)cnc2N)cc1)OCC	C (C=199-1000%)
CC(=O)NS(=O)(=O)c1ccc(NC(=O)c2nc(-c3ccc(C)s3)cnc2N)cc1	C (C=199-1000%)
CC(=O)NS(=O)(=O)c1ccc(NC(=O)c2nc(-c3cccc(N4CCOCC4)c3)cnc2N)cc1	D (D=<1000%)
Cc1ccc(-c2cnc(N)c(C(=O)Nc3ccc(C(=O)O)c(F)c3)n2)cc1	D (D=<1000%)
Cc1ccc(-c2cnc(N)c(C(=O)Nc3ccc(S(N)(=O)=O)cc3)n2)cc1	B (B=399-2000%)

Turning now to a further compound:
(Q) Indicate its recorded LKB1 % Act. Increase; the compound in question is Cc1ccc(-c2cnc(N)c(C(=O)Nc3ccc(S(=O)(=O)CC4CCO4)cc3)n2)cc1 (stereo not drawn)
(A) B (B=399-2000%)

====

# Study target: LKB1 (Homo sapiens, UniProt Q15831+Q7RTN6)
# Sequence (Q15831 1-433): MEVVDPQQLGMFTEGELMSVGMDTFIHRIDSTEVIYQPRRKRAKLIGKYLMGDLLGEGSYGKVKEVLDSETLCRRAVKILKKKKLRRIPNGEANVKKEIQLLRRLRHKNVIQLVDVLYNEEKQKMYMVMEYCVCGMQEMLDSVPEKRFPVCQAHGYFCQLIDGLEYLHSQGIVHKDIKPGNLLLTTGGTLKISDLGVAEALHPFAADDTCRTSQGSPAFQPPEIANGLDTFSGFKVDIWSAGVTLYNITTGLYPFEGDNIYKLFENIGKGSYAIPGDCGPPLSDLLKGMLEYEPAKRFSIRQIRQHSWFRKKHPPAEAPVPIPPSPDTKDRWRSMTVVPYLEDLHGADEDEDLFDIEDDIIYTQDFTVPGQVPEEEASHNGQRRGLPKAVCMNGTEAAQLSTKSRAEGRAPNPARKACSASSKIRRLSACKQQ
# Sequence (Q7RTN6 1-431): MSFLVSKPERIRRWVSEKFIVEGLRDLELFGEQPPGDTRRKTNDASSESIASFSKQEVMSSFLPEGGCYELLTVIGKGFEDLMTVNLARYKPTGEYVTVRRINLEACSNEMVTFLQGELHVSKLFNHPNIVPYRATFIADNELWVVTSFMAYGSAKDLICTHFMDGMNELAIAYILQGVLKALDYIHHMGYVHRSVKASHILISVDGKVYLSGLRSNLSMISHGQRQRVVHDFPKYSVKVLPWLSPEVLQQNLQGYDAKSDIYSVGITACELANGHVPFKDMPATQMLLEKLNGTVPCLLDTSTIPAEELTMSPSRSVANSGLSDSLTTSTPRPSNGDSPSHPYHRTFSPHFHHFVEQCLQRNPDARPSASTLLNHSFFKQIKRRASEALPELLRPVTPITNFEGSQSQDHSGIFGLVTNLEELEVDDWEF
# Sequence (Q9Y376 1-341 partner): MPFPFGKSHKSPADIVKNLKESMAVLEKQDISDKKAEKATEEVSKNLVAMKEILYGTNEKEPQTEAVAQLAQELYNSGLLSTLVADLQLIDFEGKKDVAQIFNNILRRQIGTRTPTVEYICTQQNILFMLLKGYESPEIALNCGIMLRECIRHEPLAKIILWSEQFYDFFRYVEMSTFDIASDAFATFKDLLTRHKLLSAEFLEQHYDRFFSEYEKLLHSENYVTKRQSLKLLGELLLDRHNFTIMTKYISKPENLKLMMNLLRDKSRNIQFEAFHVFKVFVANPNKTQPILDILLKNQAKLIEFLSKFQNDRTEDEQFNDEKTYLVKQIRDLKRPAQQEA
# Assay protocol: in vitro LKB1 functional activity
# Assay type: biochemical
# Condition label: APA analogs
Reported property: LKB1 % Act. Increase

The examples below pair each entry with its known result.
Molecule	LKB1 % Act. Increase
Cc1ccc(-c2cnc(N)c(C(=O)Nc3ccc(S(=O)(=O)Nc4cc(C)on4)cc3)n2)cc1	C (C=199-1000%)
CCNP(=O)(CS(=O)(=O)c1ccc(NC(=O)c2nc(-c3ccc(C)cc3)cnc2N)cc1)OCC (stereo not drawn)	D (D=<1000%)
CCOP(=O)(O)CS(=O)(=O)c1ccc(NC(=O)c2nc(-c3ccc(C)cc3)cnc2N)cc1	D (D=<1000%)
CC(=O)NS(=O)(=O)c1ccc(NC(=O)c2nc(-c3ccncc3F)cnc2N)cc1	C (C=199-1000%)
CC(=O)NS(=O)(=O)c1ccc(NC(=O)c2nc(-c3ccc(C(N)=O)cc3)cnc2N)cc1	D (D=<1000%)

(Q) Indicate its recorded LKB1 % Act. Increase; the molecule in question is `Cc1ccc(-c2cnc(N)c(C(=O)Nc3ccc(S(=O)(=O)NS(C)(=O)=O)cc3)n2)cc1`
(A) D (D=<1000%)

(Q) Indicate its recorded LKB1 % Act. Increase; the molecule in question is `CNS(=O)(=O)c1ccc(NC(=O)c2nc(-c3ccc(C)cc3)cnc2N)cc1`
(A) C (C=199-1000%)
